- Tested on: Candida albicans ATCC 10231
- method_summary: Zone of inhibition assay with impregnated polyurethane foam discs
- Format: cell-based
- condition_parameters: Day 3, daily transfer to fresh agar
readout_kind: ZOI produced by impregnated polyurethane foam punches against Candida albicans (mm)
Give bare numbers, in mm.

// worked examples, ZOI produced by impregnated polyurethane foam punches against Candida albicans included
input: For the compound CC(=O)O.CC(=O)O.NC(=N\CCCCCC/N=C(N)/N=C(\N)Nc1ccc(Cl)cc1)/N=C(\N)Nc1ccc(Cl)cc1 [Chlorhexidine Acetate, chlorhexidine diacetate, reference compound] , what ZOI produced by impregnated polyurethane foam punches against Candida albicans is on record?
output: 14

input: # iterate: N=C(NCCCCCCNC(=N)NC(=N)Nc1ccc(Cl)cc1)NC(=N)Nc1ccc(Cl)cc1.Nc1ccc(P(=O)(O)O)cc1.Nc1ccc(P(=O)(O)O)cc1 [Chlorhexidine Palmitate, chlorhexidine dipalmitate]
output: 19

input: # iterate: CCCCCCCCCC(=O)O.CCCCCCCCCC(=O)O.N=C(NCCCCCCNC(=N)NC(=N)Nc1ccc(Cl)cc1)NC(=N)Nc1ccc(Cl)cc1 [Chlorhexidine Caprate, chlorhexidine caprate]
output: 18

input: # iterate: CCCCCCCCCCCC(=O)O.NC(=NCCCCCCN=C(N)N=C(N)Nc1ccc(Cl)cc1)N=C(N)Nc1ccc(Cl)cc1 [Chlorhexidine Laurate, chlorhexidine dilaurate]
output: 32

input: # iterate: CCCCCCCCCCCCCCCCCC(=O)O.CCCCCCCCCCCCCCCCCC(=O)O.N=C(NCCCCCCNC(=N)NC(=N)Nc1ccc(Cl)cc1)NC(=N)Nc1ccc(Cl)cc1 [Chlorhexidine Stearate, chlorhexidine distearate]
output: 16

Further cases:
input: For the compound CCCCCCCCCCCCCC(=O)O.CCCCCCCCCCCCCC(=O)O.N=C(NCCCCCCNC(=N)NC(=N)Nc1ccc(Cl)cc1)NC(=N)Nc1ccc(Cl)cc1 [Chlorhexidine Myristate, chlorhexidine dimyristate] , what ZOI produced by impregnated polyurethane foam punches against Candida albicans is on record?
output: 32
